Data origin, for the record: the supplement of paper PMC10567573

B1: MLL5 (parent)
chain: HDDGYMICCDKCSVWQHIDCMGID

variants of: B1; assay: protein stability index of a GFP-peptide fusion (GPS, HEK-293T) (PSI 1-6); higher = more stable; conditions: c terminus: a fixed tail appended;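 further: lentivirally expressed fusions sorted by FACS into six bins by GFP to DsRed ratio, PSI derived from sequencing read proportions per bin multiplied by bin number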
Measure name: protein stability index
Lab note: jot down the number only; don't add units.

Before answering, review these 2 worked examples.
D24A : 2.17
Y5M : 2.83

Read the next record carefully.
[in] Please report the measured protein stability index for M6C
[out] 3.2
